I'd be grateful if you could share measured Apo-One Apoptosis Assay, 25 ng/ml, second block (ratio to Fc null) for these entries.
target: human CD3 (human) (UniProt P07766); assay: cell-based or functional assay
Sequence (P07766 23-207): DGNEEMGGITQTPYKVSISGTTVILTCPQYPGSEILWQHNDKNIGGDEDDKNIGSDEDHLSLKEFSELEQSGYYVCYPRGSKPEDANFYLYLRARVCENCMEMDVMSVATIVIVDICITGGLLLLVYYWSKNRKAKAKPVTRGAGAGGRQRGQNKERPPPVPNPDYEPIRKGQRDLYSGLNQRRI
Numbers only.

// below: answered binders
# binder, value-measured
measured = [
    ("anti-CD3 HuFR antibody 8 (heavy chain BD20611, light chain BD21137) (antibody, part only; not given: few VH framework 4 residues, V domains shown, part only) VH, part: QVQLVESGAEVKKPGASVKVSCKASGYTFTRYTMHWVRQAPGKGLEWMGYINPSRGYTNYNQKFKDRLTISKDTSKNQVVLTMTNMDPVDTATYYCARYYDDHYCLDYVTVSSASTKGPS VL: DIQMTQSPSTLSASVGDRVTITCSASSSVSYMNWYQQKPGQPPKLLIYDTSKLASGVPSRFSGSGSGTDFTFTISSLQPEDIATYYCQQWSSNPFTFGQGTKVEIKFGQGTKVEIKR", 2.2),
    ("anti-CD3 HuFR antibody 6 (heavy chain BD20611, light chain BD21135) (antibody, part only; not given: Heavy stretch before framework 4, V domains shown, part only) VH, part: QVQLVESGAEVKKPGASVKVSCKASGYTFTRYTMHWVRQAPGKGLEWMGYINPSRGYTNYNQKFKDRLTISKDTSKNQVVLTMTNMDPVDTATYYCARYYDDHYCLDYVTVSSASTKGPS VL: EIVMTQSPATLSVSPGERATLSCSASSSVSYMNWYQQKPGQAPRLLIYDTSKLASGVPDRFSGSGSGTDFTLTISSLQAEDVAVYYCQQWSSNPFTFGQGTKVEIKFGQGTKVEIKR", 3.1),
]

Attention now turns to another entry.
Query: Using the record for anti-CD3 HuFR antibody 2 (heavy chain BD20613, light chain BD21131) (antibody, part only; not given: few VH framework 4 residues, V domains shown, part only) VH, part: QVQLQESGPGLVKPSETLSLTCAVSGYTFTRYTMHWVRQAPGKGLEWVGYINPSRGYTNYNQKFKDRFTISRDDSKNTAYLQMNSLKTEDTAVYYCTRYYDDHYCLDYVTVSSASTKGPS VL: DIQMTQSPSTLSASVGDRVTITCSASSSVSYMNWYQQKPGQAPRLLIYDTSKLASGVPDRFSGSGSGTDFTLKISRVEAEDVGVYYCQQWSSNPFTFGQGTKVEIKFGQGTKVEIKR , report its Apo-One Apoptosis Assay, 25 ng/ml, second block (ratio to Fc null).
Reply: 2
